- assayed_target: androgen receptor (Homo sapiens, UniProt P10275)
- Construct: expressed in transfected cells; host or cells: CV-1 (monkey kidney fibroblast) cells, plasmid pRShAR, with reporter plasmid MTV-LUC
- Sequence (P10275 whole entry): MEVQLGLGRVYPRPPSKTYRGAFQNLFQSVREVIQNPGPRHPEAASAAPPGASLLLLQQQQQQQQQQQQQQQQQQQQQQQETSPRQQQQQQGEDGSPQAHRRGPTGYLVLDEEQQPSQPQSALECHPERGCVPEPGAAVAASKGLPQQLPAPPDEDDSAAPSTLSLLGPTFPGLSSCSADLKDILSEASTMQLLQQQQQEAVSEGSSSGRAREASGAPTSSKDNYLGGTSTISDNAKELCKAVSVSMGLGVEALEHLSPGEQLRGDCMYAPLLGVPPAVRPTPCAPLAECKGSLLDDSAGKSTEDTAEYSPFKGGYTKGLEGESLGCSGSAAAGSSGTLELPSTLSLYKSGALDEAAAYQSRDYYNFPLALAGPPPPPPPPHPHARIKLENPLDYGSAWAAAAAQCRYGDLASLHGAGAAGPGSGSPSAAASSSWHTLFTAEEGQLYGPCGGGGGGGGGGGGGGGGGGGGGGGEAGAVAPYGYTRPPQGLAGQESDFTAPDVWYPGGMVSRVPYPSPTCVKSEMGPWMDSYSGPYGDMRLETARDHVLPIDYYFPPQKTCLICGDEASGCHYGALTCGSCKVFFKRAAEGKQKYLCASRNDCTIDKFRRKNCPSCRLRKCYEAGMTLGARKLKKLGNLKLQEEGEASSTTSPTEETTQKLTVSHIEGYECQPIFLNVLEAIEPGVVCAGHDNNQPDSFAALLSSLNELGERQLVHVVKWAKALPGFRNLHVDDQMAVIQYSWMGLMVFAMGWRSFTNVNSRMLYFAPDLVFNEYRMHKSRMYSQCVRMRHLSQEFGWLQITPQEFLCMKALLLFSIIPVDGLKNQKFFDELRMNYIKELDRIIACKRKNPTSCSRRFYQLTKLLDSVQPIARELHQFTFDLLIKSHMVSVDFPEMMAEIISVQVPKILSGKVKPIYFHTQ
- experiment: Co-transfection androgen antagonist assay (CV-1 cells, pRShAR, MTV-LUC reporter; AR-wt)
- Format: cell-based
- study_conditions: CV-1; Table 1; androgen antagonists; relative to 2-Hydroxy-flutamide; read-out: Efficacy (% maximal response relative to 2-Hydroxy-flutamide)
readout_name: Emax (%)

C=C1C=CCC(C)(C)C1Cc1cc(OC)c(Br)cc1OC(C)=O (stereo not shown) [F]; 87
COc1cc(C[C@@H]2CCCC[C@@]2(C)O)c(O)cc1Br (relative stereo) [Q]; 94
C=C1C=CCC(C)(C)C1Cc1cc(OC)c(Br)cc1O (stereo not shown) [W]; 89
O=C1CCCCC1Cc1ccc([N+](=O)[O-])cc1 (stereo not shown) [G, 2-(4'-Nitrophenyl)methylcyclohexan-1-one]; 79
C=C1[C@@H](Cc2cc(OC)c(Br)cc2O)C(C)(C)CC[C@@H]1O [B]; 85
C=C1CCCC(C)(C)C1Cc1ccccc1O (stereo not shown) [D]; 92
C=C1C=C(C)CC(C)(C)C1Cc1ccc([N+](=O)[O-])c(C)c1 (stereo not shown) [U]; 69

Sourced from patent US5677336A
